# Tested on: HCC-827
# Assay: relative viability (nuclei count vs DMSO), 5 days (fraction); higher = more cells survive
# Settings: first compound 0.006325 µM
Reported Property: relative viability
Lab note: record the figure alone, no unit after it.

Reference set (4 entries):
| Molecule | Observed Measurement |
| --- | --- |
| CCNC(=O)c1noc(-c2cc(C(C)C)c(O)cc2O)c1-c1ccc(CN2CCOCC2)cc1 [Luminespib] + NC(=O)Nc1cc(-c2cccc(F)c2)sc1C(=O)N[C@H]1CCCNC1 [AZD7762] (partner 0.2 µM) | 0.234 |
| CCNC(=O)c1noc(-c2cc(C(C)C)c(O)cc2O)c1-c1ccc(CN2CCOCC2)cc1 [Luminespib] + CS(=O)(=O)N1CCN(Cc2cc3nc(-c4cccc5[nH]ncc45)nc(N4CCOCC4)c3s2)CC1 [Pictilisib] (partner 1 µM) | 1.02 |
| CCNC(=O)c1noc(-c2cc(C(C)C)c(O)cc2O)c1-c1ccc(CN2CCOCC2)cc1 [Luminespib] + C[C@]1(O)C[C@@H](c2nc(-c3ccc4ccc(-c5ccccc5)nc4c3)c3c(N)nccn32)C1 [Linsitinib] (partner 1 µM) | 0.925 |
| CCNC(=O)c1noc(-c2cc(C(C)C)c(O)cc2O)c1-c1ccc(CN2CCOCC2)cc1 [Luminespib] + CC1(C)CCC(c2ccc(Cl)cc2)=C(CN2CCN(c3ccc(C(=O)NS(=O)(=O)c4ccc(N[C@H](CCN5CCOCC5)CSc5ccccc5)c(S(=O)(=O)C(F)(F)F)c4)cc3)CC2)C1 [Navitoclax] (partner 0.5 µM) | 1.02 |

Query for HCC-827: what relative viability does the record show for CCNC(=O)c1noc(-c2cc(C(C)C)c(O)cc2O)c1-c1ccc(CN2CCOCC2)cc1 [Luminespib] + N=C(N)NC(=N)NCCc1ccccc1 [Phenformin] (partner 250 µM) ? 0.384
